biological target: Protein phosphatase methylesterase 1 (Homo sapiens) (UniProt Q9Y570); test: PME-1 inhibitor activity retest, confirmation, biochemical, fluorescence polarization, FP-Rh probe, triplicate (AID 2171); details: recombinant PME-1, FP-Rh probe fluorescence polarization; at 5.9 µM; stronger effect = higher value;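 also: 0% = enzyme with DMSO and 100% = wells lacking PME-1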
Sequence (Q9Y570 whole entry, looked up): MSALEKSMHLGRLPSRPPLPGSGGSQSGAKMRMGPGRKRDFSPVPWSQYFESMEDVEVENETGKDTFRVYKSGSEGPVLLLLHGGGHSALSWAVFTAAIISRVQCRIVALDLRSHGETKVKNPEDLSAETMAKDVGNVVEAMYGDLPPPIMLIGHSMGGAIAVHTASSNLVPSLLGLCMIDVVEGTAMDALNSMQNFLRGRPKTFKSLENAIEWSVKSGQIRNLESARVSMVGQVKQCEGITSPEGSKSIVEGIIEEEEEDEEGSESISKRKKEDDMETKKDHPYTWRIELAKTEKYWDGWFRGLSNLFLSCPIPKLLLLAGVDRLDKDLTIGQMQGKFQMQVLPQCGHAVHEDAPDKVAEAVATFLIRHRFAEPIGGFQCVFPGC
Listed compounds paired with reported inhibition
Write the answer as a number in %, unit excluded.

Field: example entries. Status: answers known.
INSERT INTO assay_data (compound, value_reported) VALUES
  ('N#CC(C#N)=NNc1ccc(S(=O)(=O)N2CCCCC2)cc1', 14.8),
  ('Nc1c(C(=O)Nc2cccc(C(=O)O)c2)sc2nc3c(cc12)CCCC3', 30.8),
  ('COc1cc(/C=N/NC(=O)c2ccc3c(c2)OCCO3)c(Br)c(Br)c1O', 43),
  ('CCCC(=O)NC(c1ccccc1Cl)c1c(O)ccc2ccccc12 (configuration not stated)', 58.5),
  ('Cc1cc(NC(=O)CSc2nc3ccccc3c(=O)n2C2CCCC2)no1', 3.59);

-- ask For the compound O=C1OC(Nc2cc(Br)cc3cccnc23)c2ccccc21 (configuration not stated) , what inhibition is on record?
-- reply 6.18

-- ask What do you get for Fc1cccc2sc(Nc3nnc(-c4ccccc4)o3)nc12 ?
-- reply 33

-- ask Cc1cc(NS(=O)(=O)c2ccc(Nc3nc(-c4sc(NC(=O)c5ccccc5)nc4C)cs3)cc2)no1 ?
-- reply 70.6

Entry source: PubChem BioAssay
